Origin of values: patent US20250027068

- tested-system: pooled human IgG
The following proteins are listed with their measured Enzyme Activity Endpoint Assay (purified): Fab'2 values.
property-label: Enzyme Activity Endpoint Assay (purified): Fab'2 (ng/µL)

protein: PRT-265 (protein) MVTSVWTKGVTPPTNFTYGEDVLHAPYVANQGWYDITKLFNGKDNLLCGAATAGNMLHWWFDQNKEQIENYLKKHPEKQKINFNGEQLFDVKEAIDTKDSQLDSKLFEYFLEKAFPYLSTKHLGVFPDHVIDMFINGYRLSLTNHGPTPVKRGSKDKRGGIFDAVFTRGVQSKLLTNRHDFKEKTLKEISDLIKQELTEGKALGISHTYANVRINHVINLWGADFDAEGNLEAIAVTDSDTNASIGMKKYFVGVNSSGKVAISAKEIEEDNIGAQVLGLFTLSTGQDIWNQTN
units-symbol: ng/µL
reading: 0
//
protein: PRT-131 (protein) MRNATEAYAKEVPHQITSVWTKGVTPLTPEQFRYNNEDVIHAPYLAHQGWYDITKAFNGKDNLLCGAATAGNMLHWWFDQNKTEIEAYLKKHPEKQKIIFNNQELFDLKAAIDTKDSQTNSQLFNYFRDKAFPNLSARQLGVMPDLVLDMFINGYYLNVFKTQSTDVNRPYQDKDKRGGIFDAVFTRGDQTTLLTARHDLKNKGLNEISTIIKQELTEGRALALSHTYANVSISHVINLWGADFNAEGNLEAIYVTDSDANASIGMKKYFVGINAHGKVAISAKKIEGENIGAQVLGLFTLSSGKDIWQKLS
units-symbol: ng/µL
reading: 745
